# reported viability, T/C; entries follow
- System: 227483-062-R1-J1-PDC complex spheroids with HUVEC/MSC, viability
- TEST_NAME: Anticancer human tumor 227483-062-R1-J1-PDC patient-derived pancreatic carcinoma cell line growth inhibition [CLK]
- REPORTED_CONDITIONS: second compound 3.16 µM; first compound 0.003 µM; active compounds read low
OUTCOME_MEASURE: viability, T/C (%)

MOLECULE	OUTCOME_MEASURE	MEAS_VALUE
CC(C)CC(NC(=O)C(Cc1ccccc1)NC(=O)c1cnccn1)B(O)O (centres undefined) + CN1CCN(c2cc(C(=O)Nc3cc4cc(-c5cnn(C)c5)ccc4cn3)ccn2)CC1	viability, T/C	2.27
C=CC(=O)Nc1cc(Nc2nccc(-c3cn(C)c4ccccc34)n2)c(OC)cc1N(C)CCN(C)C + CN1CCN(c2cc(C(=O)Nc3cc4cc(-c5cnn(C)c5)ccc4cn3)ccn2)CC1	viability, T/C	4.21
C=CC(=O)Nc1cc(Nc2nccc(-c3cn(C)c4ccccc34)n2)c(OC)cc1N(C)CCN(C)C + CNC(=O)c1ccc(Nc2nc(OC3CCCC3)c3c(-c4ccc5nc(C)oc5c4)c[nH]c3n2)c(OC)c1	viability, T/C	47.5
CC(C)CC(NC(=O)C(Cc1ccccc1)NC(=O)c1cnccn1)B(O)O (centres undefined) + CNC(=O)c1ccc(Nc2nc(OC3CCCC3)c3c(-c4ccc5nc(C)oc5c4)c[nH]c3n2)c(OC)c1	viability, T/C	0.37

---

- System: 227483-062-R1-J1-PDC complex spheroids with HUVEC/MSC, viability
- TEST_NAME: Anticancer human tumor 227483-062-R1-J1-PDC cell line growth inhibition [CLK];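 also: spheroids exposed to compounds for seven days before readout; percent of DMSO vehicle control luminescence as 100% viability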
- REPORTED_CONDITIONS: second compound 3.16 µM; first compound 0.1 µM; active compounds read low
# reported viability, T/C; entries follow
OUTCOME_MEASURE: viability, T/C (%)

COMPOUND	MEAS_VALUE
COc1cccc2c1C(=O)c1c(O)c3c(c(O)c1C2=O)CC(O)(C(=O)CO)CC3OC1CC(N)C(O)C(C)O1 (stereo not drawn) + CN1CCN(c2cc(C(=O)Nc3cc4cc(-c5cnn(C)c5)ccc4cn3)ccn2)CC1	2.78
O=C(c1cc(Cc2n[nH]c(=O)c3ccccc23)ccc1F)N1CCN(C(=O)C2CC2)CC1 + CN1CCN(c2cc(C(=O)Nc3cc4cc(-c5cnn(C)c5)ccc4cn3)ccn2)CC1	3.78
O=c1[nH]cc(F)c(=O)[nH]1 + CNC(=O)c1ccc(Nc2nc(OC3CCCC3)c3c(-c4ccc5nc(C)oc5c4)c[nH]c3n2)c(OC)c1	46.9
COC1C=CCC(C)C(C)S(=O)(=O)NC(=O)c2ccc3c(c2)N(CC2CCC21)CC1(CCCc2cc(Cl)ccc21)CO3 (stereo not drawn) + CN1CCN(c2cc(C(=O)Nc3cc4cc(-c5cnn(C)c5)ccc4cn3)ccn2)CC1	3.64
CCc1c2c(nc3ccc(O)cc13)-c1cc3c(c(=O)n1C2)COC(=O)[C@]3(O)CC + CN1CCN(c2cc(C(=O)Nc3cc4cc(-c5cnn(C)c5)ccc4cn3)ccn2)CC1	2.48
CC1(C)CCC(CN2CCN(c3ccc(C(=O)NS(=O)(=O)c4ccc(NCC5CCOCC5)c([N+](=O)[O-])c4)c(Oc4cnc5[nH]ccc5c4)c3)CC2)=C(c2ccc(Cl)cc2)C1 + CN1CCN(c2cc(C(=O)Nc3cc4cc(-c5cnn(C)c5)ccc4cn3)ccn2)CC1	4.13
COC1C=CCC(C)C(C)S(=O)(=O)NC(=O)c2ccc3c(c2)N(CC2CCC21)CC1(CCCc2cc(Cl)ccc21)CO3 (stereo not drawn) + CNC(=O)c1ccc(Nc2nc(OC3CCCC3)c3c(-c4ccc5nc(C)oc5c4)c[nH]c3n2)c(OC)c1	41.2
CC(Nc1ccc2c(c1)OCCn1cc(N3C(=O)OCC3C(F)F)nc1-2)C(N)=O (stereo not drawn) + CNC(=O)c1ccc(Nc2nc(OC3CCCC3)c3c(-c4ccc5nc(C)oc5c4)c[nH]c3n2)c(OC)c1	49.8

---

- Tested on: 227483-062-R1-J1-PDC complex spheroids with HUVEC/MSC, viability
- TEST_NAME: Anticancer human tumor 227483-062-R1-J1-PDC cell line growth inhibition [CLK];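 also: spheroids exposed to compounds for seven days before readout; percent of DMSO vehicle control luminescence as 100% viability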
- REPORTED_CONDITIONS: second compound 0.316 µM; first compound 0.0316 µM; active compounds read low
- Text: A high-throughput screen of multi-cell type tumor spheroids was designed to identify active combinations of […] and targeted small molecules. Complex spheroids include a stromal component modeled by human endothelial cells (HUVEC) and fibroblasts modeled by human mesenchymal stem cells (MSCs). […] Compounds. […] If the clinical Cmax for an agent had not been determined, the highest concentration tested was 10 microM. […]
# reported viability, T/C; entries follow

COMPOUND	SUBJECT_OF_TEST	viability, T/C [%]
COc1c(OCCCN2CCOCC2)ccc2c3n(c(=NC(=O)c4cnc(N)nc4)nc12)CCN3 + CN1CCN(c2cc(C(=O)Nc3cc4cc(-c5cnn(C)c5)ccc4cn3)ccn2)CC1	227483-062-R1-J1-PDC complex spheroids with HUVEC/MSC, viability	5.96
COc1c(OCCCN2CCOCC2)ccc2c3n(c(=NC(=O)c4cnc(N)nc4)nc12)CCN3 + CNC(=O)c1ccc(Nc2nc(OC3CCCC3)c3c(-c4ccc5nc(C)oc5c4)c[nH]c3n2)c(OC)c1	227483-062-R1-J1-PDC complex spheroids with HUVEC/MSC, viability	59.8
COC1C=CCC(C)C(C)S(=O)(=O)NC(=O)c2ccc3c(c2)N(CC2CCC21)CC1(CCCc2cc(Cl)ccc21)CO3 (centres undefined) + CNC(=O)c1ccc(Nc2nc(OC3CCCC3)c3c(-c4ccc5nc(C)oc5c4)c[nH]c3n2)c(OC)c1	227483-062-R1-J1-PDC complex spheroids with HUVEC/MSC, viability	94
CC(CO)NC(=O)c1cc(-c2ccc(Cl)cc2)nn(-c2cnn(C)c2)c1=O (centres undefined) + CN1CCN(c2cc(C(=O)Nc3cc4cc(-c5cnn(C)c5)ccc4cn3)ccn2)CC1	227483-062-R1-J1-PDC complex spheroids with HUVEC/MSC, viability	6.17
COc1ccc([C@@H](O)c2cc(-c3ncnc4cc(N5CCOCC5)ccc34)c(F)cc2Cl)nn1 + CNC(=O)c1ccc(Nc2nc(OC3CCCC3)c3c(-c4ccc5nc(C)oc5c4)c[nH]c3n2)c(OC)c1	227483-062-R1-J1-PDC complex spheroids with HUVEC/MSC, viability	86.2
C#Cc1c(F)ccc2cc(O)cc(-c3ncc4c(N5CC6CCC(C5)N6)nc(OCC56CCCN5CC(F)C6)nc4c3F)c12 (centres undefined) + CNC(=O)c1ccc(Nc2nc(OC3CCCC3)c3c(-c4ccc5nc(C)oc5c4)c[nH]c3n2)c(OC)c1	227483-062-R1-J1-PDC complex spheroids with HUVEC/MSC, viability	106
Cn1ncnc1[C@H]1c2n[nH]c(=O)c3cc(F)cc(c23)N[C@@H]1c1ccc(F)cc1 + CNC(=O)c1ccc(Nc2nc(OC3CCCC3)c3c(-c4ccc5nc(C)oc5c4)c[nH]c3n2)c(OC)c1	227483-062-R1-J1-PDC complex spheroids with HUVEC/MSC, viability	94.4
C=C(F)C(=O)N1CCN(c2nc(OCC3CCCN3C)nc3c2CCN(c2cccc4cccc(Cl)c24)C3)CC1CC#N (centres undefined) + CNC(=O)c1ccc(Nc2nc(OC3CCCC3)c3c(-c4ccc5nc(C)oc5c4)c[nH]c3n2)c(OC)c1	227483-062-R1-J1-PDC complex spheroids with HUVEC/MSC, viability	95.9
C=C(F)C(=O)N1CCN(c2nc(OCC3CCCN3C)nc3c2CCN(c2cccc4cccc(Cl)c24)C3)CC1CC#N (centres undefined) + CN1CCN(c2cc(C(=O)Nc3cc4cc(-c5cnn(C)c5)ccc4cn3)ccn2)CC1	227483-062-R1-J1-PDC complex spheroids with HUVEC/MSC, viability	5.59

---

- Test system: 227483-062-R1-J1-PDC complex spheroids with HUVEC/MSC, viability
- TEST_NAME: Anticancer human tumor 227483-062-R1-J1-PDC cell line growth inhibition [CLK]; active = viability on the fitted dose curve at most 10% of control; inactive = the rest;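 also: spheroids exposed to compounds for seven days before readout; percent of DMSO vehicle control luminescence as 100% viability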
- REPORTED_CONDITIONS: second compound 10 µM; first compound 0.1 µM
Labels: True for active, False for inactive

COMPOUND	ANSWER_LABEL
Cn1ncnc1[C@H]1c2n[nH]c(=O)c3cc(F)cc(c23)N[C@@H]1c1ccc(F)cc1 + CN1CCN(c2cc(C(=O)Nc3cc4cc(-c5cnn(C)c5)ccc4cn3)ccn2)CC1	True
Nc1ccn(C2OC(CO)C(O)C2(F)F)c(=O)n1 (stereo not given) + CN1CCN(c2cc(C(=O)Nc3cc4cc(-c5cnn(C)c5)ccc4cn3)ccn2)CC1	True
CC1(C)CCC(CN2CCN(c3ccc(C(=O)NS(=O)(=O)c4ccc(NCC5CCOCC5)c([N+](=O)[O-])c4)c(Oc4cnc5[nH]ccc5c4)c3)CC2)=C(c2ccc(Cl)cc2)C1 + CNC(=O)c1ccc(Nc2nc(OC3CCCC3)c3c(-c4ccc5nc(C)oc5c4)c[nH]c3n2)c(OC)c1	False
O=c1[nH]cc(F)c(=O)[nH]1 + CN1CCN(c2cc(C(=O)Nc3cc4cc(-c5cnn(C)c5)ccc4cn3)ccn2)CC1	True
CC1(C)CCC(CN2CCN(c3ccc(C(=O)NS(=O)(=O)c4ccc(NCC5CCOCC5)c([N+](=O)[O-])c4)c(Oc4cnc5[nH]ccc5c4)c3)CC2)=C(c2ccc(Cl)cc2)C1 + CN1CCN(c2cc(C(=O)Nc3cc4cc(-c5cnn(C)c5)ccc4cn3)ccn2)CC1	True
